test system: HT-29; experiment: Antiproliferative activity against human HT29 cell line; type: functional, cell-based
OBSERVATION_TYPE: pIC50
In plain terms, pIC50 is the concentration in mol/L turned into minus its base-10 logarithm.

Exam item: I have this compound here, CCCCCCCCCCCC(=O)N[C@@H]1[C@H](O)[C@@H](CO)O[C@H]1c1nc(C(N)=O)cs1 , and I need its recorded pIC50.
Marked response: 7.96

###

system: K562; assay: Antiproliferative activity against human K562 cell line; assay type: functional, cell-based
OBSERVATION_TYPE: IC50

>  <SMILES_STR>
CCCCCC(=O)N[C@@H]1[C@H](O)[C@@H](CO)O[C@H]1c1nc(C(N)=O)cs1

>  <TARGET_DESC>
K562

>  <IC50>
> 100 µM

$$$$

Here is another molecule to look at.
Exam item: I have this molecule here, CCCCCCCCCCCC(=O)N[C@@H]1[C@H](O)[C@@H](CO)O[C@H]1c1nc(C(N)=O)cs1 , and I need its recorded IC50.
Marked response: 35.6 µM

###

system: HL-60; assay: Antiproliferative activity against human HL60 cell line; format: functional, cell-based
OBSERVATION_TYPE: pIC50
In plain terms, pIC50 is the concentration in mol/L turned into minus its base-10 logarithm.

Exam item: I have this molecule here, CCCCCCCCCCCC(=O)N[C@@H]1[C@H](O)[C@@H](CO)O[C@H]1c1nc(C(N)=O)cs1 , and I need its recorded pIC50.
Marked response: 5.32
